# System: RAW264.7
# ASSAY EXPLANATION: Inhibition of nitric oxide production in LPS/IFNgamma-stimulated mouse RAW264.7 cells incubated for 17 hrs by Griess assay
# Type: functional, cell-based
# TEST CONDITIONS: RAW264.7, 17 h
RECORDED ENDPOINT: IC50 (µM)

P. COc1cc(/C=C/C(=O)CC(=O)/C=C/c2ccc(O)c(OC)c2)ccc1O [CURCUMIN]
Q. COc1cccc(/C=C2\CCCC(C(=O)c3ccccc3)=C2O)c1
Exercise: Between the entries labeled P and Q , whose measured IC50 is lower? Give the label of your selection.
Solution: P

###

# ASSAY EXPLANATION: Antioxidant activity assessed as DPPH radical scavenging activity at 200 uM incubated for 30 mins under dark conditions
# Type: physicochemical
# TEST CONDITIONS: 0.5 h
RECORDED ENDPOINT: inhibition (INH) (%)

Consider the reported inhibition (INH) for these molecules:
>  <MOLECULE SMILES>
Cc1ccc(/C=C2\CCCC(C(=O)c3ccccc3)=C2O)s1

>  <UNIT TAG>
%

>  <inhibition (INH)>
18.4

$$$$
>  <MOLECULE SMILES>
COc1cc(/C=C/C(=O)CC(=O)/C=C/c2ccc(O)c(OC)c2)ccc1O

>  <UNIT TAG>
%

>  <inhibition (INH)>
84.2

$$$$
>  <MOLECULE SMILES>
O=C(C1=C(O)/C(=C/c2cccc3ccccc23)CCC1)c1ccccc1

>  <UNIT TAG>
%

>  <inhibition (INH)>
17.8

$$$$

I. O=C(C1=C(O)/C(=C/c2cccs2)CCC1)c1ccccc1
II. O=C(C1=C(O)/C(=C/c2ccc3ccccc3c2)CCC1)c1ccccc1
Exercise: I'm curious, which of these has a smaller inhibition (INH) number: I or II ? Field: selected label. Fill in the label of the entry you choose.
Solution: II

###

# ASSAY EXPLANATION: Solubility in phosphate buffer at pH 7.4 stirred for 24 hrs at room temperature by HPLC method
# Format: physicochemical
RECORDED ENDPOINT: solubility at 24 h (µM)

I. COc1cc(/C=C/C(=O)CC(=O)/C=C/c2ccc(O)c(OC)c2)ccc1O
II. O=C(C1=C(O)/C(=C/c2ccc(O)c(O)c2)CCC1)c1ccccc1
Exercise: In terms of reported solubility at 24 h, does I or II have the smaller number? Return value: the label identifying the chosen record.
Solution: I
(I: 1.1 µM, II: 3.3 µM)

###

# ASSAY EXPLANATION: Antioxidant activity assessed as nitric oxide radical scavenging activity at 500 uM incubated for 60 mins with light exposure at room temperature by Griess assay
# Assay type: physicochemical
# TEST CONDITIONS: 1 h
RECORDED ENDPOINT: inhibition (INH) (%)

>  <COMPOUND>
Cc1ccc(/C=C2\CCCC(C(=O)c3ccccc3)=C2O)s1

>  <UNIT TAG>
%

>  <inhibition (INH)>
1.6

$$$$
>  <COMPOUND>
O=C1O[C@H]([C@@H](O)CO)C(O)=C1O

>  <UNIT TAG>
%

>  <inhibition (INH)>
2.6

$$$$
>  <COMPOUND>
Cc1cc(C(C)(C)C)c(O)c(C(C)(C)C)c1 [BUTYLATED HYDROXYTOLUENE]

>  <UNIT TAG>
%

>  <inhibition (INH)>
6.5

$$$$

A. COc1cccc(/C=C2\CCCC(C(=O)c3ccccc3)=C2O)c1
B. O=C(C1=C(O)/C(=C/c2cccc3ccccc23)CCC1)c1ccccc1
C. COc1cc(/C=C/C(=O)CC(=O)/C=C/c2ccc(O)c(OC)c2)ccc1O
Exercise: Would you mind ranking these compounds by ascending inhibition (INH)? In plain terms: list the labels in the order you were asked to.
Solution: B, A, C

1. Cc1c(C)c2c(c(C)c1O)CCC(C)(C(=O)O)O2 (centres undefined)
2. O=C(C1=C(O)/C(=C/c2ccc3ccccc3c2)CCC1)c1ccccc1
Exercise: For this pair, 1 and 2 , which shows a numerically higher inhibition (INH)? The response must carry the label of the picked entry.
Solution: 2

###

# ASSAY EXPLANATION: Antioxidant activity assessed as DPPH radical scavenging activity incubated for 30 mins under dark conditions
# Format: physicochemical
RECORDED ENDPOINT: pIC50
Units for pIC50: none; it is -log10 of a concentration expressed in mol/L.

Exercise: Reported pIC50 for `COc1cc(/C=C/C(=O)CC(=O)/C=C/c2ccc(O)c(OC)c2)ccc1O` : what is it?
Solution: 4.63

###

# ASSAY EXPLANATION: Antioxidant activity incubated at 50 degC for 20 mins by FRAP assay
# Format: physicochemical
RECORDED ENDPOINT: Activity (mmolequiv/L)

A. O=C(C1=C(O)/C(=C/c2cccs2)CCC1)c1ccccc1
B. Cc1cc(C(C)(C)C)c(O)c(C(C)(C)C)c1 [BUTYLATED HYDROXYTOLUENE]
Exercise: Thinking about recorded Activity values, which is higher, A or B ? When you have decided, please share the label of that item.
Solution: B

A. O=C(C1=C(O)/C(=C/c2cccc3ccccc23)CCC1)c1ccccc1
B. COc1cc(/C=C/C(=O)CC(=O)/C=C/c2ccc(O)c(OC)c2)ccc1O [CURCUMIN]
C. Cc1ccc(/C=C2\CCCC(C(=O)c3ccccc3)=C2O)s1
D. O=C(C1=C(O)/C(=C/c2ccc3ccccc3c2)CCC1)c1ccccc1
Exercise: Ascending by Activity, please: list the compounds accordingly. Use the labels to give the requested order.
Solution: A, D, C, B

a. COc1cccc(/C=C2\CCCC(C(=O)c3ccccc3)=C2O)c1
b. Cc1c(C)c2c(c(C)c1O)CCC(C)(C(=O)O)O2 (stereo not drawn) [TROLOX]
Exercise: In terms of reported Activity, does a or b have the smaller number? State your choice using its label.
Solution: a

###

# System: RAW264.7
# ASSAY EXPLANATION: Inhibition of nitric oxide production in LPS/IFNgamma-stimulated mouse RAW264.7 cells at 50 uM incubated for 17 hrs by Griess assay
# Format: functional
# TEST CONDITIONS: RAW264.7, 17 h
RECORDED ENDPOINT: inhibition at 50 µM (%)
Hi! Could you send only the number? It should be in %, unit omitted.

Guide cases for inhibition at 50 µM, answers given:
>  <MOLECULE SMILES>
O=C(C1=C(O)/C(=C/c2ccc3ccccc3c2)CCC1)c1ccccc1

>  <RESULT NUMBER>
9.3

$$$$
>  <MOLECULE SMILES>
Cc1ccc(/C=C2\CCCC(C(=O)c3ccccc3)=C2O)s1

>  <RESULT NUMBER>
7.6

$$$$
>  <MOLECULE SMILES>
COc1cc(/C=C/C(=O)CC(=O)/C=C/c2ccc(O)c(OC)c2)ccc1O

>  <RESULT NUMBER>
99.3

$$$$
>  <MOLECULE SMILES>
O=C(C1=C(O)/C(=C/c2cccc3ccccc23)CCC1)c1ccccc1

>  <RESULT NUMBER>
15

$$$$
>  <MOLECULE SMILES>
COc1cccc(/C=C2\CCCC(C(=O)c3ccccc3)=C2O)c1

>  <RESULT NUMBER>
71.6

$$$$

Exercise: Could you share which inhibition at 50 µM value was measured for `O=C(C1=C(O)/C(=C/c2cccs2)CCC1)c1ccccc1` ?
Solution: 8.2
